- Tested on: ACHN renal
- METHOD SUMMARY: NCI-60 one-dose screen, 48 h
- REPORTED CONDITIONS: 10 µM unless noted
Compounds without any hit were thinned out: in the full panel of roughly 83,000, 20% have a hit. The source made the active and inactive calls. How the source made its calls: active means growth percent below 10; inactive means the rest.
Outcome codes: Y (active), N (inactive)

{"MOLECULE": "O=C(Nc1ccc(C2=NCCCN2)cc1)c1ccc(C(=O)Nc2ccc(C3=NCCCN3)cc2)nc1", "CLASS LABEL": "N"}
{"MOLECULE": "Cc1cc(N(CCNc2ccnc3cc(Cl)ccc23)Cc2ccc3c(c2)OCO3)nc(N2CCN(C)CC2)n1", "CLASS LABEL": "Y"}
{"MOLECULE": "N#Cc1c(-c2ccc(C(F)(F)F)cc2)cc(NCC2CCS(=O)(=O)CC2)n2c1nc1ccccc12", "CLASS LABEL": "N"}
{"MOLECULE": "NC1=Nc2ccccc2N(O)N1", "CLASS LABEL": "N"}
{"MOLECULE": "Cc1nn(-c2nc3ccccc3[nH]2)c2c1C(c1ccc(O)cc1)CC(=O)N2 (centres undefined)", "CLASS LABEL": "N"}
{"MOLECULE": "C[C@@H](N)c1ccc(C(=O)Nc2ccnc3[nH]ccc23)cc1", "CLASS LABEL": "N"}
{"MOLECULE": "CC(=O)Oc1ccccc1C(=O)N=C1[Se]CCN1C(=O)c1ccccc1OC(C)=O", "CLASS LABEL": "Y"}
{"MOLECULE": "CCCc1cc2cc(-n3nc(C)c4c3CC(C)(C)CC4=O)cc(NC3CCC(O)CC3)c2c(=O)[nH]1 (centres undefined)", "CLASS LABEL": "N"}
{"MOLECULE": "CCc1nc2cc(F)c(/C=C/C(=O)NO)cc2c(=O)n1CCc1ccccc1", "CLASS LABEL": "Y"}
{"MOLECULE": "CCc1nc2cc(/C=C/C(=O)NO)ccc2c(=O)n1CCc1ccc(F)cc1", "CLASS LABEL": "Y"}
{"MOLECULE": "CCCCN1CCCC[C@@H]1C(=O)N[C@H](C(=O)N(C)[C@H](CCc1nc(C(=O)N[C@@H](Cc2ccccc2)C[C@H](C)C(=O)OC)cs1)C(C)C)C(C)C", "CLASS LABEL": "N"}
{"MOLECULE": "COc1cc(-c2nc(C(=O)Nc3ccc(C)cc3)nn2-c2ccc(F)c(F)c2)cc(OC)c1OC", "CLASS LABEL": "N"}
{"MOLECULE": "Cc1cnc(NC(=O)Nc2cc(Br)c(C)cc2OC[C@@H]2CNCCO2)cn1", "CLASS LABEL": "Y"}
{"MOLECULE": "Brc1ccc([I+]c2ccc(Br)cc2)cc1", "CLASS LABEL": "N"}
{"MOLECULE": "C=CC(=O)N(C)[C@H]1C[C@H]2OC(C)(C1OC)n1c3ccccc3c3c4c(c5c6ccccc6n2c5c31)C(=O)NC4 (some centres undefined)", "CLASS LABEL": "N"}
{"MOLECULE": "CCCCCCCC(=O)SCC/C=C/[C@@H]1CC(=O)NCc2cccc(n2)C2=N[C@@](C)(CS2)C(=O)N[C@@H](C(C)C)C(=O)O1", "CLASS LABEL": "Y"}
{"MOLECULE": "CCc1nc(C(N)=O)c(Nc2ccc(N3CCC(N4CCN(C)CC4)CC3)c(OC)c2)nc1NC1CCOCC1", "CLASS LABEL": "N"}
{"MOLECULE": "CC1(C)NC(=O)c2[nH]c3c(Cl)c(Cl)ccc3c2C1C#N (centres undefined)", "CLASS LABEL": "N"}
{"MOLECULE": "Nc1c2c(c(O)c3c1=C(CO)C=N3)=NCCS2=O (centres undefined)", "CLASS LABEL": "Y"}
